- MEASUREMENT_TARGET: UniProtKB P32245
- Sequence (P32245 whole entry): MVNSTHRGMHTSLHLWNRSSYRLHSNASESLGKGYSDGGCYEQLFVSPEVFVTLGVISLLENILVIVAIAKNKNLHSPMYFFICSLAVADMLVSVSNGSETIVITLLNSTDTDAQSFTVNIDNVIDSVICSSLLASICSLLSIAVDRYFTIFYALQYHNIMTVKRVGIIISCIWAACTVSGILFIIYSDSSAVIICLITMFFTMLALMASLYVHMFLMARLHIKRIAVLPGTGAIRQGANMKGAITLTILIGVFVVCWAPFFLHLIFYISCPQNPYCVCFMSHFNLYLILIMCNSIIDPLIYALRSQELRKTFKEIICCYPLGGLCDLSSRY
- ASSAY_NAME: Agonist activity against human Melanocortin 4 receptor at 10 uM
QUANTITY_NAME: Activity
Just the number plus its unit, please.

Would you mind telling me what Activity value was observed for CC(C)[C@H](NC(=O)[C@@H](N)Cc1ccc(O)cc1)C(=O)NC1CSSCC(C(=O)N[C@@H](CCCN=C(N)N)C(=O)N[C@@H](Cc2ccccc2)C(=O)NCC(N)=O)NC(=O)[C@H](Cc2c[nH]c3ccccc23)NC(=O)[C@H](CCCN=C(N)N)NC(=O)[C@@H](Cc2ccccc2)NC(=O)[C@H](Cc2c[nH]cn2)NC(=O)CNC1=O (stereo in doubt) ?
46%

====

Observed Ki for Melanocortin receptor 3 (Homo sapiens, UniProt P41968), reported per entry below.
Square brackets hold non-standard residues; d marks the D form. Peptide text beside a SMILES is read from it. d2Nal = N[C@H](Cc1ccc2ccccc2c1)C(=O)O; Nle = CCCC[C@H](N)C(=O)O
Give bare numbers, in µM.

Go through the items and report each one's Ki.
1. CC(C)[C@H](NC(=O)[C@@H](N)Cc1ccc(O)cc1)C(=O)N[C@H]1CSSC[C@@H](C(=O)N[C@@H](CCCN=C(N)N)C(=O)N[C@@H](Cc2ccccc2)C(=O)NCC(N)=O)NC(=O)[C@H](Cc2c[nH]c3ccccc23)NC(=O)[C@H](CCCN=C(N)N)NC(=O)[C@H](Cc2ccccc2)NC(=O)[C@H](Cc2c[nH]cn2)NC(=O)CNC1=O
2. CCCC[C@H](NC(=O)[C@@H](NC(=O)[C@@H](N)Cc1ccc(O)cc1)C(C)C)C(=O)NCC(=O)N[C@@H](Cc1c[nH]cn1)C(=O)N[C@@H](Cc1ccccc1)C(=O)N[C@@H](CCCN=C(N)N)C(=O)N[C@H](Cc1ccc2ccccc2c1)C(=O)N[C@@H](CC(=O)O)C(=O)N[C@@H](CCCN=C(N)N)C(=O)N[C@@H](Cc1ccccc1)C(=O)NCC(N)=O
3. CCCC[C@H](NC(=O)[C@@H](NC(=O)[C@@H](N)Cc1ccc(O)cc1)C(C)C)C(=O)NCC(=O)N1CCC[C@H]1C(=O)N[C@H](Cc1ccc2ccccc2c1)C(=O)N[C@@H](CCCN=C(N)N)C(=O)N[C@@H](Cc1c[nH]c2ccccc12)C(=O)N[C@@H](CC(=O)O)C(=O)N[C@@H](CCCN=C(N)N)C(=O)N[C@@H](Cc1ccccc1)C(=O)NCC(N)=O (H-YV[Nle]GP[d2Nal]RWDRFG-NH2)

1. 0.068
2. 0.015
3. 0.0002

====

- MEASUREMENT_TARGET: Melanocortin receptor 3 (Homo sapiens, UniProt P41968)
- Sequence (P41968 whole entry): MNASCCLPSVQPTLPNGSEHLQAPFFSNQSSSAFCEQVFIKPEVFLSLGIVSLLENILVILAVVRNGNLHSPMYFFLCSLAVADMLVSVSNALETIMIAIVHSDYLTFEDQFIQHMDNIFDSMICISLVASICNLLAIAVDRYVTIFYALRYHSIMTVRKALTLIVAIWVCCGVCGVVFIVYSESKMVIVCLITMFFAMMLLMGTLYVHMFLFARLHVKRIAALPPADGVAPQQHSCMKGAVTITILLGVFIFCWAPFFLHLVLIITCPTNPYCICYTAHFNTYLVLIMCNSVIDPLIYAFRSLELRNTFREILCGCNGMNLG
- ASSAY_NAME: Intracellular cAMP accumulation in human Melanocortin 3 receptor functional assay.
pEC50: −log10 of the molar value. Bridge positions count the residues as written; N and C are the ends. Square brackets hold non-standard residues; d marks the D form. Peptide text beside a SMILES is read from it. Pen = CC(C)(S)[C@H](N)C(=O)O
Provide the reported pEC50 of each item.

Example entries begin here.
INSERT INTO assay_data (compound, measurement_target, quantity_name, observed_value) VALUES
  ('CC(C)[C@H](NC(=O)[C@@H](N)Cc1ccc(O)cc1)C(=O)N[C@H]1CSSC(C)(C)[C@@H](C(=O)N[C@@H](CCCNC(=N)N)C(=O)N[C@@H](Cc2ccccc2)C(=O)NCC(N)=O)NC(=O)[C@H](Cc2c[nH]c3ccccc23)NC(=O)[C@H](CCCNC(=N)N)NC(=O)[C@H](Cc2ccccc2)NC(=O)[C@H](Cc2cnc[nH]2)NC(=O)CNC1=O (H-YVCGHFRW[Pen]RFG-NH2; disulfide 3-9)', 'Melanocortin receptor 3 (Homo sapiens, UniProt P41968)', 'pEC50', '< 5.00'),
  ('CCCC[C@H](NC(=O)[C@@H](NC(=O)[C@@H](N)Cc1ccc(O)cc1)C(C)C)C(=O)NCC(=O)N[C@@H](Cc1c[nH]cn1)C(=O)N[C@H](Cc1ccc2ccccc2c1)C(=O)N[C@@H](CCCN=C(N)N)C(=O)N[C@@H](Cc1c[nH]c2ccccc12)C(=O)N[C@@H](CC(=O)O)C(=O)N[C@@H](CCCN=C(N)N)C(=O)N[C@@H](Cc1ccccc1)C(=O)NCC(N)=O', 'Melanocortin receptor 3 (Homo sapiens, UniProt P41968)', 'pEC50', '< 5.00'),
  ('CCCC[C@H](NC(=O)[C@@H](NC(=O)[C@@H](N)Cc1ccc(O)cc1)C(C)C)C(=O)NCC(=O)NC(C)(C)C(=O)N[C@@H](Cc1ccccc1)C(=O)N[C@@H](CCCN=C(N)N)C(=O)N[C@H](Cc1ccc2ccccc2c1)C(=O)N[C@@H](CC(=O)O)C(=O)N[C@@H](CCCN=C(N)N)C(=O)N[C@@H](Cc1ccccc1)C(=O)NCC(N)=O', 'Melanocortin receptor 3 (Homo sapiens, UniProt P41968)', 'pEC50', '< 5.00');

// each compound listed below needs its pEC50
1. CC(C)[C@H](NC(=O)[C@@H](N)Cc1ccc(O)cc1)C(=O)N[C@H]1CSSC[C@H](C(=O)N[C@@H](CCCN=C(N)N)C(=O)N[C@@H](Cc2ccccc2)C(=O)NCC(N)=O)NC(=O)[C@H](Cc2c[nH]c3ccccc23)NC(=O)[C@H](CCCN=C(N)N)NC(=O)[C@H](Cc2ccccc2)NC(=O)[C@H](Cc2c[nH]cn2)NC(=O)CNC1=O
2. CC(C)[C@H](NC(=O)[C@@H](N)Cc1ccc(O)cc1)C(=O)NC1CSSCC(C(=O)N[C@@H](CCCN=C(N)N)C(=O)N[C@@H](Cc2ccccc2)C(=O)NCC(N)=O)NC(=O)[C@H](Cc2c[nH]c3ccccc23)NC(=O)[C@H](CCCN=C(N)N)NC(=O)[C@@H](Cc2ccccc2)NC(=O)[C@H](Cc2c[nH]cn2)NC(=O)CNC1=O (stereo in doubt)

1. < 5.00
2. < 5.00
